assay: PK of five RC components in pituitrin-induced myocardial ischemia (MDG) rats after oral RC extract, HPLC-QQQ-MS/MS, DAS; assay type: in vivo, SD rats; conditions: rat, in vivo; MDG (myocardial ischemia) rats, oral RC extract 2 g/kg, plasma, mean ± SD, n = 6; read-out: Vz/F

{"compound": "O=c1c(O)c(-c2ccc(O)cc2)oc2cc(O)cc(O)c12 [Kaempferol, kaempferol]", "Vd/F / L/kg": 245}

###

assay: PK of five RC components in sham operation administration (SDG, normal) rats after oral RC extract, HPLC-QQQ-MS/MS, DAS; format: in vivo, SD rats; details: rat; SDG rats, oral RC extract 2 g/kg, plasma, mean ± SD, n = 6; read-out: Tmax

{"compound": "OC[C@H]1O[C@@H](OCCc2ccc(O)cc2)[C@H](O)[C@@H](O)[C@@H]1O [Salidroside, salidroside]", "Tmax, min": 45}
{"compound": "OCCc1ccc(O)cc1", "Tmax, min": 70.2}
